Reported values of %inh for individual entries
Molecular target: human recombinant PLK1 (Homo sapiens)
Sequence (P53350 whole entry): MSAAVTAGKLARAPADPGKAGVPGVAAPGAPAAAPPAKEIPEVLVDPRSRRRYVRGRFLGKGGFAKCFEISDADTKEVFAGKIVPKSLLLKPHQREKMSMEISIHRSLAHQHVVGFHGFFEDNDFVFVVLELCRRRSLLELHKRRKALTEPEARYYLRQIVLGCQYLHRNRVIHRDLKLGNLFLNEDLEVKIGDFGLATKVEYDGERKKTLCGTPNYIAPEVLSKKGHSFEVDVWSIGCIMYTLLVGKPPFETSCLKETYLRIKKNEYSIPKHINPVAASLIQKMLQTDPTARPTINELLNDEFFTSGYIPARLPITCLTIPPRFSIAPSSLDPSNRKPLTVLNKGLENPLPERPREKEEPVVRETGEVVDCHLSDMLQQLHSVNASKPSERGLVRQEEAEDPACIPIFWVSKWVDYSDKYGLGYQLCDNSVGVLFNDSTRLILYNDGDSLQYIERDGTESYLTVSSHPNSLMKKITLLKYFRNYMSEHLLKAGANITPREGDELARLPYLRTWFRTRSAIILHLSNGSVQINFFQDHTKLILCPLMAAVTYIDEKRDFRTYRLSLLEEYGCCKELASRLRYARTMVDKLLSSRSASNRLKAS
Assay: PLK1 inhibitory activity assay (ADP-Glo Kinase Assay)
Format: biochemical
Details: PLK1 Lab Report; conc 100 (unit not given)
assay_metric: %inh (%)

1) CC[C@@H]1C(=O)N(C)c2cnc(Nc3ccc(C(=O)N[C@H]4CC[C@H](N5CCN(CC6CC6)CC5)CC4)cc3OC)nc2N1C(C)C [Volasertib, reference compound]; 96
2) CCn1c(N)c(/N=C(/CBr)c2ccc(OC)cc2)c(=O)[nH]c1=O; 94
3) COc1ccc(/C(CBr)=N\c2c(N)n(Cc3ccccc3Cl)c(=O)[nH]c2=O)cc1; 94
4) Cn1c(SCC(=O)c2ccccc2)nc(=O)c(/N=C(/CBr)c2ccccc2)c1N; 95
5) Nc1c(/N=C(/CBr)c2ccccc2)c(=O)[nH]c(=O)n1Cc1ccccc1; 95

###

System: MDA-MB-231 breast cancer cells
Experiment: MTT cytotoxicity assay, MDA-MB-231
Format: cell-based
Conditions: MDA-MB-231; MTT; 0.312 uM
assay_metric: Toxicity % (%)

1. Nc1c(/N=C(/CBr)c2ccc([N+](=O)[O-])cc2)c(=O)[nH]c(=O)n1Cc1ccccc1; 0.6206
2. COc1ccc(-c2cnc3c(n2)c(=O)[nH]c(=O)n3Cc2ccccc2)cc1; 0.266
3. CN(Cc1cnc2nc(N)nc(N)c2n1)c1ccc(C(=O)N[C@@H](CCC(=O)O)C(=O)O)cc1 [Methotrexate, reference compound]; 0.3532

###

Tested on: MDA-MB-231 breast cancer cells
Experiment: MTT cytotoxicity assay, MDA-MB-231
Type: cell-based
Conditions: Homo sapiens; MDA-MB-231; MTT; 5 uM
Sorting guide: entries reporting viability at 5 µM beneath 9% go in the 1 pile, the rest go in the -1 pile.

1. CN(Cc1cnc2nc(N)nc(N)c2n1)c1ccc(C(=O)N[C@@H](CCC(=O)O)C(=O)O)cc1 [Methotrexate, reference compound]; -1
2. CCn1c(N)c(/N=C(/CBr)c2ccc(OC)cc2)c(=O)[nH]c1=O; 1
3. CCn1c(N)c(/N=C(/CBr)c2ccc([N+](=O)[O-])cc2)c(=O)[nH]c1=O; -1
4. Nc1c(/N=C(/CBr)c2ccccc2)c(=O)[nH]c(=O)n1Cc1ccccc1; 1
5. COc1ccc(/C(CBr)=N\c2c(N)n(Cc3ccccc3Cl)c(=O)[nH]c2=O)cc1; 1

###

System: HT-29 colorectal adenocarcinoma cells
Experiment: MTT cytotoxicity assay, HT-29
Assay type: cell-based
Conditions: HT29; MTT; 0.312 uM
assay_metric: Toxicity % (%)

1) Nc1c(/N=C(/CBr)c2ccc([N+](=O)[O-])cc2)c(=O)[nH]c(=O)n1Cc1ccccc1Cl; 0.1292
2) Cn1c(=S)[nH]c(=O)c2nc(-c3ccccc3)c(-c3ccccc3)nc21; 0
3) Cn1c(SCC(=O)c2ccc([N+](=O)[O-])cc2)nc(=O)c(/N=C(/CBr)c2ccc([N+](=O)[O-])cc2)c1N; 0.08613
4) CCn1c(N)c(/N=C(/CBr)c2ccc([N+](=O)[O-])cc2)c(=O)[nH]c1=O; 0.1292

###

System: HT-29 colorectal adenocarcinoma cells
Assay: MTT cytotoxicity assay, HT-29
Assay type: cell-based
Conditions: Homo sapiens, HT-29; MTT; mean of three independent experiments ± SD; read-out: IC50 Value HT-29
Reported values of IC50 for individual entries
assay_metric: IC50 (nM)

1) CCn1c(N)c(/N=C(/CBr)c2ccc(OC)cc2)c(=O)[nH]c1=O [Compound 6a]; 750
2) COc1ccc(/C(CBr)=N\c2c(N)n(Cc3ccccc3Cl)c(=O)[nH]c2=O)cc1 [Compound 6b]; 1690
3) CCn1c(N)c(/N=C(/CBr)c2ccc([N+](=O)[O-])cc2)c(=O)[nH]c1=O [Compound 5a]; 3090

These entries and their values trace back to paper PMC10535864.
